Data origin: patent US20240247024A1

# tested-target: NNMT (Homo sapiens, UniProt P40261)
# procedure-text: NNMT assay (HILIC-MS/MS, formation of MNA)
# setup-conditions: IC50 values (nM), Table 6, amino acid replacement; NA 200 μM, SAM 8.5 μM; maximum concentration tested 25 μM
Below is a list of entries, each paired with its recorded IC50 value.
reported-property: IC50

compound="N#Cc1ccc(/C=C/CN(CCNC(=O)C(F)(F)Cl)C[C@H]2O[C@@H](n3cnc4c(N)ncnc43)[C@H](O)[C@@H]2O)cc1 [GYZ-701]" result="> 25000 nM"
compound="CCNCCN(C/C=C/c1ccc(C#N)cc1)C[C@H]1O[C@@H](n2cnc3c(N)ncnc32)[C@H](O)[C@@H]1O [GYZ-761]" result="> 25000 nM"
compound="N#Cc1ccc(/C=C/CN(CCNC(=O)C(F)(F)Br)C[C@H]2O[C@@H](n3cnc4c(N)ncnc43)[C@H](O)[C@@H]2O)cc1 [GYZ-706]" result="> 25000 nM"
compound="C=CC(=O)N1CC(CN(C/C=C/c2ccc(C#N)cc2)C[C@H]2O[C@@H](n3cnc4c(N)ncnc43)[C@H](O)[C@@H]2O)C1 [GYZ-665]" result="4160 nM"
compound="N#Cc1ccc(/C=C/CN(CCCCc2ccccc2)C[C@H]2O[C@@H](n3cnc4c(N)ncnc43)[C@H](O)[C@@H]2O)cc1 [GYZ-756]" result="> 25000 nM"
compound="COC(=O)/C=C/C(=O)NCCN(C/C=C/c1ccc(C#N)cc1)C[C@H]1O[C@@H](n2cnc3c(N)ncnc32)[C@H](O)[C@@H]1O [GYZ-694]" result="> 25000 nM"

----------
# tested-target: NNMT (Homo sapiens)
# Sequence (P40261 1-264): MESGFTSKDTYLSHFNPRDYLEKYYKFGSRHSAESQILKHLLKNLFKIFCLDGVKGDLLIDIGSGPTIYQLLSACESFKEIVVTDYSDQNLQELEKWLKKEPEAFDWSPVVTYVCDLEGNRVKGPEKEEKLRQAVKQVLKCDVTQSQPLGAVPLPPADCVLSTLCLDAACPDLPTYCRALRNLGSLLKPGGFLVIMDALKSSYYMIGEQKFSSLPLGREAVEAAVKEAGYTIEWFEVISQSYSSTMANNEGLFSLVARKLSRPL
# procedure-text: NNMT assay (HILIC-MS/MS, formation of MNA)
# setup-conditions: IC50 values (nM), Table 5, 3-carbon alkyl linkers; NA 200 μM, SAM 8.5 μM
reported-property: IC50 (nM)

smiles_string=Nc1ncnc2c1ncn2[C@@H]1O[C@H](CN(CCCc2ccc([N+](=O)[O-])cc2)CC[C@H](N)C(=O)O)[C@@H](O)[C@H]1O quantitative_readout=294

----------
Below is a list of entries, each paired with its recorded IC50 value.
# tested-target: NNMT (Homo sapiens, UniProt P40261)
# procedure-text: NNMT assay (HILIC-MS/MS, formation of MNA)
# setup-conditions: IC50 values (μM), Table 6, amino acid replacement; NA 200 μM, SAM 8.5 μM; maximum concentration tested 25 μM
reported-property: IC50 (µM)

smiles_string=N#Cc1ccc(/C=C/CN(C/C=C/c2ccc(C#N)cc2)C[C@H]2O[C@@H](n3cnc4c(N)ncnc43)[C@H](O)[C@@H]2O)cc1 comparison_operator=> quantitative_readout=25
smiles_string=N#Cc1ccc(/C=C/CN(CC(=O)CCl)C[C@H]2O[C@@H](n3cnc4c(N)ncnc43)[C@H](O)[C@@H]2O)cc1 comparison_operator== quantitative_readout=0.98
smiles_string=N#Cc1ccc(/C=C/CN(CCS(=O)(=O)F)C[C@H]2O[C@@H](n3cnc4c(N)ncnc43)[C@H](O)[C@@H]2O)cc1 comparison_operator=> quantitative_readout=25
smiles_string=CCCCCN(C/C=C/c1ccc(C#N)cc1)C[C@H]1O[C@@H](n2cnc3c(N)ncnc32)[C@H](O)[C@@H]1O comparison_operator=> quantitative_readout=25
smiles_string=N#Cc1ccc(/C=C/CN(CCNC(=O)C(F)(F)Cl)C[C@H]2O[C@@H](n3cnc4c(N)ncnc43)[C@H](O)[C@@H]2O)cc1 comparison_operator=> quantitative_readout=25
smiles_string=COC(=O)/C=C/C(=O)NCCN(C/C=C/c1ccc(C#N)cc1)C[C@H]1O[C@@H](n2cnc3c(N)ncnc32)[C@H](O)[C@@H]1O comparison_operator=> quantitative_readout=25
smiles_string=N#Cc1ccc(/C=C/CN(CCCCc2ccccc2)C[C@H]2O[C@@H](n3cnc4c(N)ncnc43)[C@H](O)[C@@H]2O)cc1 comparison_operator=> quantitative_readout=25
smiles_string=C=CC(=O)N1CC(CN(C/C=C/c2ccc(C#N)cc2)C[C@H]2O[C@@H](n3cnc4c(N)ncnc43)[C@H](O)[C@@H]2O)C1 comparison_operator== quantitative_readout=4.16
smiles_string=N#Cc1ccc(/C=C/CN(CCNC(=O)C(F)(F)Br)C[C@H]2O[C@@H](n3cnc4c(N)ncnc43)[C@H](O)[C@@H]2O)cc1 comparison_operator=> quantitative_readout=25
smiles_string=C=CC(=O)NCCN(C/C=C/c1ccc(C#N)cc1)C[C@H]1O[C@@H](n2cnc3c(N)ncnc32)[C@H](O)[C@@H]1O comparison_operator== quantitative_readout=21
smiles_string=CCNCCN(C/C=C/c1ccc(C#N)cc1)C[C@H]1O[C@@H](n2cnc3c(N)ncnc32)[C@H](O)[C@@H]1O comparison_operator=> quantitative_readout=25
smiles_string=N#Cc1ccc(/C=C/CN(CCNC(=O)C(F)(F)F)C[C@H]2O[C@@H](n3cnc4c(N)ncnc43)[C@H](O)[C@@H]2O)cc1 comparison_operator== quantitative_readout=7.77
smiles_string=N#CCC(=O)NCCN(C/C=C/c1ccc(C#N)cc1)C[C@H]1O[C@@H](n2cnc3c(N)ncnc32)[C@H](O)[C@@H]1O comparison_operator== quantitative_readout=0.931
smiles_string=N#Cc1ccc(/C=C/CN(CCCNC(=O)CCl)C[C@H]2O[C@@H](n3cnc4c(N)ncnc43)[C@H](O)[C@@H]2O)cc1 comparison_operator== quantitative_readout=11.9
smiles_string=N#Cc1ccc(/C=C/CN(C/C=C/c2ccc(S(=O)(=O)F)cc2)C[C@H]2O[C@@H](n3cnc4c(N)ncnc43)[C@H](O)[C@@H]2O)cc1 comparison_operator== quantitative_readout=7.78
